# TEST_TARGET: BACE1 (Homo sapiens (Human))
# Sequence (P56817 75-416): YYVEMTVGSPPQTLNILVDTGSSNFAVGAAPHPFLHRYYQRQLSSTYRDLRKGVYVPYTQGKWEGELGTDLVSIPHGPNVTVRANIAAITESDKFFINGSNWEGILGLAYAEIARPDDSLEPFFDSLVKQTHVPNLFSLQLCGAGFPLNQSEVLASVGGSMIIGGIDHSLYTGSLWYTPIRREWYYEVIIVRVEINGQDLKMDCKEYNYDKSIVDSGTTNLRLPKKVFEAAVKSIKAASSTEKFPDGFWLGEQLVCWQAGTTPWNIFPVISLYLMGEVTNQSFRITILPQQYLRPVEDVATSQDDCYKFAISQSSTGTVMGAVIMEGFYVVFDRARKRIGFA
# TEST_METHOD_NOTES: Measurement of BACE1 inhibition by fluorescence resonance energy transfer (FRET), MCA substrate
# CONDITION_CONTEXT: read-out: Test Example 1 IC50; FRET, MCA-SEVNLDAEFK(DNP)-NH2 substrate, pH 4.4
PROPERTY_LABEL: IC50 (µM)
Respond numerically; units are µM and should not be typed.

| COMPOUND | TEST_TARGET | ENDPOINT_UNIT | IC50 |
| --- | --- | --- | --- |
| CCSc1cccc(-c2ccc3c(c2)C2(COC(N)=N2)C2(COC2)C(C)(C)O3)c1 (stereo not shown) | BACE1 (Homo sapiens (Human)) | µM | 0.933 |
| CC#Cc1cncc(-c2cc3c(cc2F)OCC2(CC2)C32COC(N)=N2)c1 (stereo not shown) | BACE1 (Homo sapiens (Human)) | µM | 0.4 |

Hey, BACE1 (Homo sapiens (Human)) data for NC1=NC2(CO1)c1cc(-c3cncnc3)ccc1OCC21CCCO1 (stereo not shown) [RP 97] : IC50 came out at 20.2

Entry NC1=NC2(CO1)c1cc(-c3cccnc3F)ccc1OCC21CC1 (stereo not shown) , BACE1 (Homo sapiens (Human)) data, IC50 value: 2.19

IC50 of CC1(C)Oc2ccc(-c3ccc4nonc4c3)cc2C2(COC(N)=N2)C12COC2 (stereo not shown) , assay on BACE1 (Homo sapiens (Human)), is 1.15

###

# TEST_TARGET: BACE1 (Homo sapiens (Human))
# TEST_METHOD_NOTES: Measurement of BACE1 inhibition by time resolved fluorescence resonance energy transfer (TR-FRET)
# Type: biochemical
# CONDITION_CONTEXT: Eu-CEVNLDAEFK-QSY 7 substrate, read-out: Test Example 2 IC50
Some compounds, each annotated with its measured IC50.
Give the value, in units of µM, as a plain number.

See these solved cases before continuing.
| COMPOUND | IC50 [µM] |
| --- | --- |
| CC1(C)Oc2ccc(-c3cccc4[nH]ncc34)cc2C2(COC(N)=N2)C12COC2 (stereo not shown) | 0.994 |
| CC1(C)Oc2ccc(-c3cccc4cnccc34)cc2C2(COC(N)=N2)C12COC2 (stereo not shown) | 1.77 |
| CC1(C)Oc2ccc(-c3ccccc3OC(F)(F)F)cc2C2(COC(N)=N2)C12COC2 (stereo not shown) | 2.72 |

Next compound, please.
Entry Cc1cc(-c2ccc3c(c2)C2(COC(N)=N2)C2(COC2)CO3)ccn1 (stereo not shown) ; IC50 = 55.4

###

Recorded IC50, one value per entry.
# TEST_TARGET: BACE1 (Homo sapiens (Human))
# TEST_METHOD_NOTES: Measurement of BACE1 inhibition by fluorescence resonance energy transfer (FRET), MCA substrate
# CONDITION_CONTEXT: read-out: Test Example 1 IC50; FRET, MCA-SEVNLDAEFK(DNP)-NH2 substrate, pH 4.4
Please give a number only; it is taken to be in nM.

| COMPOUND | ENDPOINT_UNIT | IC50 |
| --- | --- | --- |
| NC1=NC2(CO1)c1cc(Br)ccc1OC(Cc1ccccc1)C21COC1 (single isomer, unassigned) [RP 15b] | nM | 1010 |

Item COc1cccnc1Nc1ccc2c(c1)C1(COC(N)=N1)C1(COC1)C1(CCC1)O2 (centres unmarked) [RP 45] was tested on BACE1 (Homo sapiens (Human)); the reported IC50 is 1040

The compound COc1cc(-c2ccc3c(c2)C2(COC(N)=N2)C2(COC2)C(C)(C)O3)c(Cl)cn1 (centres unmarked) [RP 162] on BACE1 (Homo sapiens (Human)): IC50 was 1040

Hey, BACE1 (Homo sapiens (Human)) data for NC1=NC2(CO1)c1cc(-c3cncc(OCC(F)(F)F)c3)ccc1OCC21CC1 (centres unmarked) [RP 58] : IC50 came out at 1480

Entry CC1(C)Oc2ccc(-c3cccc(OCC(F)(F)F)c3)cc2C2(COC(N)=N2)C12COC2 (centres unmarked) [RP 143] : IC50 on BACE1 (Homo sapiens (Human)) = 1260
